system: PPARg DBDmut:RXRa IVT, anti-PPARg (DBD mutation: PPARg1 K132A/R137A, NR concentration 270 nM, RXRa partner concentration 90 nM); experiment: PBM binding z-score (relative to random genomic background probes); higher = stronger binding; sequences stand for … in GC…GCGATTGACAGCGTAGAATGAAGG
Where PBM binding z-score equals or exceeds 0.4, the correct label is y; where it does not, the label is n.

sequence=TCTGCTAGGTCAACGATGGTCGGCTAATCTGCTA assignedclass=n
sequence=GCTAGTTGGTCAGTAAACGGTCACACACCGGTCG assignedclass=n
sequence=CCTACTGGGTCAAAAAGGTCATTGATGCCGATAA assignedclass=y
sequence=CTTGCTAGGTCATGGTCAGCTAATCTACAGTATG assignedclass=y
sequence=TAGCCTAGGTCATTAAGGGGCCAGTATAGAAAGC assignedclass=y
sequence=CGAAAGAGGGCATGAGTTGATAGCAAATGCCGAT assignedclass=n
sequence=CTCGAAAGGTCGTACTCAGGTGAGTATACCAAAC assignedclass=y
sequence=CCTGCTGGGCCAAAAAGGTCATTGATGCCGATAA assignedclass=n
sequence=GCTGCTAGATCAGGTTGGTCAGCTAACGGGTACG assignedclass=n
sequence=ATCTGTAGGTAAAGTTCAGTGAAAGATCGATAGA assignedclass=y
sequence=CCGACTGGGGCATAGGGTTACCATAAGCCAGCCC assignedclass=n
sequence=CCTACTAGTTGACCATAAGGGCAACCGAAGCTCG assignedclass=n
sequence=TCTCGGAGGACACGAAAGGTCAGGGCTCGACATC assignedclass=n
sequence=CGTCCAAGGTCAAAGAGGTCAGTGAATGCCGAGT assignedclass=n
sequence=TCTGCTAGTTCAGTTGGTCAGCTAACGAGCTGCC assignedclass=n
sequence=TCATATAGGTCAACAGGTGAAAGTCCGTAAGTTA assignedclass=y
sequence=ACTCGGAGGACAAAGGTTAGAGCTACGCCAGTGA assignedclass=n
sequence=CCTTCCGGGTCACTCCAGGTTATAGCATCGGAGT assignedclass=n
sequence=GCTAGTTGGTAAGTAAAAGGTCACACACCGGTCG assignedclass=n
sequence=CCTGCTGGGCCATCAGGTCATTGATATCAACGTT assignedclass=n
sequence=CGACAAAGTTCAAGGTAACGTAACAGAAAGCAGC assignedclass=y
sequence=TCTAGTTGGTCACGGAGCTCACACACGACGGGTA assignedclass=n
sequence=ATATGTAGGCTAGCTGGGGTCATTCAGACTAGGC assignedclass=y
sequence=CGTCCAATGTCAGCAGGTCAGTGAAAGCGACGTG assignedclass=n
sequence=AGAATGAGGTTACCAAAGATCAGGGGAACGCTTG assignedclass=y
sequence=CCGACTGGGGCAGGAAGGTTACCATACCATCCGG assignedclass=n
sequence=TTACCAAGGTGAGCTGTGGTCGTTGATCCAACTC assignedclass=n
sequence=TCGAGTAGGTTGGTCGGGGCATTCAGCCAACATA assignedclass=n
sequence=ACAAGTTGGTCAGCTGAGGTCACACACAATTCGG assignedclass=y
sequence=CCGACTGGGCCAAGGTCATTGATCAGTCAAAGCA assignedclass=n
sequence=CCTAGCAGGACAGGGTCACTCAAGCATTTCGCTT assignedclass=n
sequence=CGAACTAGGTCAGAACAGCACAGTGAAGGATGAT assignedclass=y
sequence=TCTCAAAGTTCAAAGGTAACGTAAGTATCCACAC assignedclass=y
sequence=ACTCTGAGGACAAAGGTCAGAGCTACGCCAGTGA assignedclass=y
sequence=CGTCAAAGTTCACGGTAACGTAACAGAAAGCAGC assignedclass=y
sequence=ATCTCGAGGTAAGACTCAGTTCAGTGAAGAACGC assignedclass=n
sequence=AGAACGAGGCCACGCTGAGTTGATAGCAGAGTAG assignedclass=n
sequence=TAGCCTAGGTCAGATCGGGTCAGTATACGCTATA assignedclass=n
sequence=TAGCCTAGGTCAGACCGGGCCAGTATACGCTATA assignedclass=n
sequence=ACTGGCAGGCCAAGGGTCACTCAAGATTAGTCCG assignedclass=n
sequence=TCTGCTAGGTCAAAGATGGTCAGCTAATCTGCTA assignedclass=n
sequence=CAAACTATGTCAAGGTCAAAGTCGGTTTGTGCCA assignedclass=n
sequence=CCTACTGGGCCATTCAGCGGTCATTGATCATATG assignedclass=n
sequence=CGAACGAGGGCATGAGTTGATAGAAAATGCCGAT assignedclass=n
sequence=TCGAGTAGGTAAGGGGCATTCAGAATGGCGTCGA assignedclass=n
sequence=AGTCACAGTTCAGGACGAGGTAACGTAAAGCACG assignedclass=y
sequence=ATCTCTAGGTAACTAAGTTCAGTGAATGCCGAAC assignedclass=y
sequence=GCTGCTAGGACAGGTTGGTCAGCTAACGGGTACG assignedclass=n
sequence=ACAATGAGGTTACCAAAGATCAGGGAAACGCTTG assignedclass=y
sequence=ATCTCTAGGTAACAAGTTCAGAGAAAGAGAGGAC assignedclass=y
